Quick reference: DC50 of the listed items.
# Subject Of Test: UniProtKB Q92830
# Sequence (Q92830 whole entry): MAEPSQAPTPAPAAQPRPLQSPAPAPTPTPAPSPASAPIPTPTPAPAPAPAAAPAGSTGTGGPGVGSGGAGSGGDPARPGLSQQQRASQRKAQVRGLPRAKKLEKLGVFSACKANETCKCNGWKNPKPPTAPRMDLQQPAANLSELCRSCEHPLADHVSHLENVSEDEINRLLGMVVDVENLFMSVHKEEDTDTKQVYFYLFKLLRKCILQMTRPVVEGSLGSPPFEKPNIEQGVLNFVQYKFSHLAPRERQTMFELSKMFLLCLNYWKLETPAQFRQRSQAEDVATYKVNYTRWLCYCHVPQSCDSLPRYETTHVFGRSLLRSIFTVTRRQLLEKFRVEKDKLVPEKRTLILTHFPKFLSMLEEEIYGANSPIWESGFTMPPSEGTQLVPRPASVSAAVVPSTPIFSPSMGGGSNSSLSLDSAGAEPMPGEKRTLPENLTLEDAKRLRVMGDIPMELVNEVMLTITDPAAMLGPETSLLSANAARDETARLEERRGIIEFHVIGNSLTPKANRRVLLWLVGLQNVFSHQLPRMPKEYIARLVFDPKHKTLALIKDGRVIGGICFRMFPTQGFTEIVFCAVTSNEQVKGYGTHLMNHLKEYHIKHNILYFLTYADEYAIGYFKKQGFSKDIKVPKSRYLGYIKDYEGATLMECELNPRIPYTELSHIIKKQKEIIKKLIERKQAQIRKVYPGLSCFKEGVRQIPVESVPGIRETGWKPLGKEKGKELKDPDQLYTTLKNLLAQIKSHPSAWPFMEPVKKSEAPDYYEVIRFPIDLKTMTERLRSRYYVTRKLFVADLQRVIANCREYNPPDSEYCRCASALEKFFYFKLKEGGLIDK
# Assay Info: KAT2A degradation, Western Blot (Jess), NCI-H1048 cells
# Type: cell-based
# Parameters: degrader, Western blot (Jess)
# Assay Context: NCI-H1048 cells, KAT2A, 24 h, Western Blot, vs DMSO; read-out: KAT2A NCI-H1048 DC50
Parameter: DC50

[[record]]
compound = "CN1C[C@H](Nc2cnn(C)c(=O)c2Cl)C[C@H](c2ccc(C(=O)N3CCC4(CC3)CCN(c3ccc5c(C6CCC(=O)NC6=O)nccc5c3)CC4)cc2)C1 (stereo partly shown) [Compound 293]"
parameter = "DC50"
result = "< 1 nM"

[[record]]
compound = "CN1C[C@H](Nc2cnn(C)c(=O)c2Br)C[C@H](c2ccc(C(=O)N3CCC4(CC3)CCN(c3ccc(C5CCC(=O)NC5=O)cn3)CC4)cc2)C1 (stereo partly shown) [Compound 261]"
parameter = "DC50"
result = "< 1 nM"

[[record]]
compound = "Cc1cc(N2CCC(N3CCN(C(=O)c4ccc([C@H]5C[C@@H](Nc6cnn(C)c(=O)c6Br)CN(C)C5)cc4)CC3)CC2)ccc1C1CCC(=O)NC1=O (stereo partly shown) [Compound 309]"
parameter = "DC50"
result = "< 1 nM"

[[record]]
compound = "CN1C[C@H](Nc2cnn(C)c(=O)c2Cl)C[C@H](c2ccc(C(=O)N3CCC4(CC3)CCN(c3ccc(CN5CCC(=O)NC5=O)cc3)CC4)cc2)C1 [Compound 268]"
parameter = "DC50"
result = "< 1 nM"

[[record]]
compound = "Cc1cc(N2CCC3(CCN(Cc4ccc([C@H]5C[C@@H](Nc6cnn(C)c(=O)c6Cl)CN(C)C5)cc4)CC3)CC2)ccc1C1CCC(=O)NC1=O (stereo partly shown) [Compound 338]"
parameter = "DC50"
result = "< 1 nM"

[[record]]
compound = "CN1C[C@H](Nc2cnn(C)c(=O)c2Cl)C[C@H](c2ccc(C(=O)N3CCC4(CC3)CCN(c3ccc5nnn(C6CCC(=O)NC6=O)c5c3)CC4)cc2)C1 (stereo partly shown) [Compound 214]"
parameter = "DC50"
result = "1 to 30 nM"

[[record]]
compound = "COc1cc(N2CCC3(CCN(C(=O)c4ccc([C@H]5C[C@@H](Nc6cnn(C)c(=O)c6Br)CN(C)C5)cc4)CC3)CC2)cc(C)c1C1CCC(=O)NC1=O (stereo partly shown) [Compound 287]"
parameter = "DC50"
result = "< 1 nM"

[[record]]
compound = "CN1C[C@H](Nc2cnn(C)c(=O)c2Br)C[C@H](c2ccc(CN3CCC(c4cccc(C5CCC(=O)NC5=O)c4)C(F)(F)C3)cc2)C1 (stereo partly shown) [Compound 386]"
parameter = "DC50"
result = "1 to 30 nM"

[[record]]
compound = "CN1C[C@H](Nc2cnn(C)c(=O)c2Br)C[C@H](c2ccc(C(=O)N3CCC4(CC3)CCN(c3ccc(C(=O)NC5CCC(=O)NC5=O)nc3)CC4)cc2)C1 (stereo partly shown) [Compound 402]"
parameter = "DC50"
result = "< 1 nM"

[[record]]
compound = "CN1C[C@H](Nc2cnn(C)c(=O)c2Br)C[C@H](c2ccc(CN3CC(Oc4cccc(C5CCC(=O)NC5=O)c4)C3)cc2)C1 (stereo partly shown) [Compound 184]"
parameter = "DC50"
result = "< 1 nM"

[[record]]
compound = "CN1C[C@H](Nc2cnn(C)c(=O)c2Br)C[C@H](c2ccc(CN3CCN(c4ccc5c(c4)C(=O)N(C4CCC(=O)NC4=O)C5=O)CC3)cc2)C1 (stereo partly shown) [Compound 28]"
parameter = "DC50"
result = "< 1 nM"

[[record]]
compound = "CN1C[C@H](Nc2cnn(C)c(=O)c2Br)C[C@H](c2ccc(C(=O)N3CCC(Oc4ccc(C5CCC(=O)NC5=O)cc4F)CC3)cc2)C1 (stereo partly shown) [Compound 124]"
parameter = "DC50"
result = "< 1 nM"

[[record]]
compound = "CN1C[C@H](Nc2cnn(C)c(=O)c2Br)C[C@H](c2ccc(C(=O)N3CCC4(CC3)CCN(c3ccc(C5CCC(=O)NC5=O)cc3)CC4)cc2)C1 (single isomer, unassigned) [Compound 240]"
parameter = "DC50"
result = "< 1 nM"

